- System: γ-PAK
- Sequence (Q29502 249-500 limits assumed): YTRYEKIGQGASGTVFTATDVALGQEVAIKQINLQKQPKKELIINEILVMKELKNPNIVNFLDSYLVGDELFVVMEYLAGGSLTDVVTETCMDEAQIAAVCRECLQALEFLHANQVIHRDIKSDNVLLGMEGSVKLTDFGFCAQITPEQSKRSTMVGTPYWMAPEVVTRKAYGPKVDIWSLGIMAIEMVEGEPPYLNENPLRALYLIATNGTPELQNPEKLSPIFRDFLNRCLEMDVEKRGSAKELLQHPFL
- protocol notes: Rates of phosphorylation of synthetic peptides by γ-PAK
- Type: biochemical, rabbit
- details: synthetic peptides
No end group written: not given here.
quantity kind: substrate for γ-PAK (in words)

- substance: "AAKKSAA (AAKKSAA-NH2) [synthetic peptide with an amide C-terminal group]"
  quantity kind: "substrate for γ-PAK (in words)"
  test value: "poor substrates"
- substance: "ARKASAA (ARKASAA-NH2) [synthetic peptide with an amide C-terminal group]"
  quantity kind: "substrate for γ-PAK (in words)"
  test value: "poor substrates"
- substance: "AAKRSAA (AAKRSAA-NH2) [synthetic peptide with an amide C-terminal group]"
  quantity kind: "substrate for γ-PAK (in words)"
  test value: "poor substrates"
- substance: "RKKKSAA (RKKKSAA-NH2) [synthetic peptide with an amide C-terminal group]"
  quantity kind: "substrate for γ-PAK (in words)"
  test value: "poor substrates"
- substance: "AKKASAA (AKKASAA-NH2) [synthetic peptide with an amide C-terminal group]"
  quantity kind: "substrate for γ-PAK (in words)"
  test value: "poor substrates"
